STUDY_TARGET: native calpain I (Homo sapiens, UniProt P07384)
Construct: Native and recombinant enzymatically active calpain I were compared; from tissue; host or cells: human erythrocytes (red blood cells)
Sequence (P07384 2-714): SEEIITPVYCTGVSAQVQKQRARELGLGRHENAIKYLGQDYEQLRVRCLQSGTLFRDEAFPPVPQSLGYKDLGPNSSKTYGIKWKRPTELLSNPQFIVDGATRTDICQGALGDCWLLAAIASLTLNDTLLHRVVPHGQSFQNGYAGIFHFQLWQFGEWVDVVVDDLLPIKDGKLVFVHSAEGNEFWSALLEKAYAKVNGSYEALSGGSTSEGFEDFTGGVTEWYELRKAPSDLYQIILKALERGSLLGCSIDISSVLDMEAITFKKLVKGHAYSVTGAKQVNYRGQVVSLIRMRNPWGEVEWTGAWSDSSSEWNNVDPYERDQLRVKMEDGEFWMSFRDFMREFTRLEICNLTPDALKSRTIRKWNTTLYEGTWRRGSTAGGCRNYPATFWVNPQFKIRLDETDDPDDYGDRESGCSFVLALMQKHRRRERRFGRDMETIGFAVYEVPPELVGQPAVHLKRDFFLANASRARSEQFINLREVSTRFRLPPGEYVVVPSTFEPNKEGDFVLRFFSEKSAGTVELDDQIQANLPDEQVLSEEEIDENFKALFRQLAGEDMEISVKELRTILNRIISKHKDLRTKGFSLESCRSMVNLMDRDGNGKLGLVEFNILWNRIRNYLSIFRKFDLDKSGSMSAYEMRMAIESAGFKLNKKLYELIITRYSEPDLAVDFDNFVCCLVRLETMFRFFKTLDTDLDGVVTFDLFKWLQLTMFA
Sequence (P04632 whole entry partner): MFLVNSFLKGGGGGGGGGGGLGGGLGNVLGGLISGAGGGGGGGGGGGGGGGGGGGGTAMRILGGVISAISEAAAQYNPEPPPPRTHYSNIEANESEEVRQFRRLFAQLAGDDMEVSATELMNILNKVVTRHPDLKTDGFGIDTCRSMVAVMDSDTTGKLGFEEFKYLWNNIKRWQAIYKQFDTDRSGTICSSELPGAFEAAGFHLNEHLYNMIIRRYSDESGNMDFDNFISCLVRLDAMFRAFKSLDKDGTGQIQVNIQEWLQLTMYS
ASSAY_REMARKS: Inhibitor profile: inhibition of Succ-Leu-Tyr-MNA hydrolysis by native calpain I
Type: biochemical
READOUT_TYPE: pIC50
Please keep in mind that pIC50 is minus log10 of the molar concentration; only the number is needed.

## Input Recorded pIC50 for CCNC(=O)C(=O)[C@H](Cc1ccccc1)NC(=O)[C@H](CC(C)C)NC(=O)OCc1ccccc1 , please?
## Output 7.25

---

STUDY_TARGET: recombinant human calpain I (Homo sapiens)
Construct: the 2153 bp fragment containing the entire human 80 kDa calpain I cDNA; made in house; host or cells: Spodoptera frugiperda Sf21 cells, recombinant baculovirus (AcNPV-hCANPI-2-5, or coinfection with AcNPV-hCANP30-5 and AcNPV-hCANPI80-5)
Sequence (P07384 2-714): as the sequence (P07384 2-714) above
Sequence (P04632 whole entry partner, the tested form may be a part): as the sequence (P04632 whole entry partner) above
ASSAY_REMARKS: Inhibitor profile: inhibition of Succ-Leu-Tyr-MNA hydrolysis by recombinant calpain I
Assay type: biochemical
READOUT_TYPE: pIC50
# reply with the number alone; pIC50 is -log10 of concentration in mol/L

## Input What measured pIC50 goes with CCNC(=O)C(=O)[C@H](Cc1ccccc1)NC(=O)[C@H](CC(C)C)NC(=O)OCc1ccccc1 ?
## Output 7.47
